measurement.notes: Detergency solubility of carboxylic acid coatings in KOH based system (Example 1)
Type: physicochemical
run.parameters: acidic coating, materials dissolved in DMAC
attribute.measured: Detergency (KOH based system)

> print(dat)
                                   molecule  value.reported
1      O=C(O)c1ccccc1C(=O)O [Phthalic Acid]             Yes
2  O=C(O)c1ccc(C(=O)O)cc1 [Terephthalic acid]         Partial
3          O=C(O)/C=C/C(=O)O [Fumaric Acid]         Partial
4  O=C(O)c1cccc(C(=O)O)c1 [Isophthalic acid]             Yes

Attention now turns to another entry.
input: # Detergency (KOH based system) lookup, item O=C(O)c1ccc(O)cc1 [P-hydroxybenzoic acid]
output: Yes

The values you see were collected from patent US9790407B2.
